The following binders are listed with their measured human PIR R0 (% parent) values.
# System under test: T1, human parathyroid hormone receptor (PTHR) (human, UniProt Q03431 27-593)
# T1 construct: Assayed in membranes of HKRK-B7 cells or of transiently transfected COS-7 cells, or on intact HKRK-B7/HKRK-B64/COS-7 cells; RG = co-transfected with negative-dominant Galpha-s; R0 = receptor alone plus GTPgammaS; also called hPTHR; human PTH receptor
# T1 sequence: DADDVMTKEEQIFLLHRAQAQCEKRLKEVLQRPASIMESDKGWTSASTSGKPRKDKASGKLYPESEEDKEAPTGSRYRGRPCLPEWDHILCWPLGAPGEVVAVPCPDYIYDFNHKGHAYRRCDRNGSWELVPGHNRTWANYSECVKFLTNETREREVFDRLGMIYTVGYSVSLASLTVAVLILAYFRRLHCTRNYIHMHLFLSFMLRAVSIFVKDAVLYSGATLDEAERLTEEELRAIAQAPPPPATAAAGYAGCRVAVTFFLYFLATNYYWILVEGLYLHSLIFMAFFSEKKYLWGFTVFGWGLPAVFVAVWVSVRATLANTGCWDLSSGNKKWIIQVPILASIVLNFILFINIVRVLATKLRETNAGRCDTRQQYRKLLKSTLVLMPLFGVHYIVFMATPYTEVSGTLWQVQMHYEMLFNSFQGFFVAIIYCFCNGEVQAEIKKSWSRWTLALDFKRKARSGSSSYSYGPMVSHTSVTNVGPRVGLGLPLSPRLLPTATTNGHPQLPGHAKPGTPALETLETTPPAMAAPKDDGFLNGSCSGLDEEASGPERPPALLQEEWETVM
# Method description: screen, binding to human PIR R0 relative to parent PTHrP(1-28)NH; footnote not given
Ends that are not written are not given here.
Respond numerically; units are % parent and should not be typed.

AVSEHQLLHDKGKSIQDARRRWFLHKLI-NH2 [A18,W22,K26-PTHrP(1-28)NH] = 136

Determine its reported human PIR R0 (% parent): AVSEHQLLHDKGKSIQDERRRKFLHKLI-NH2 [E18,K22,26-PTHrP(1-28)NH]
120

Determine its reported human PIR R0 (% parent): AVSEHQLLHDKGKSIQDERRRWFLHKLI-NH2 [E18,W22,K26-PTHrP(1-28)NH]
46.6

Determine its reported human PIR R0 (% parent): AVSEHQLLHDKGKSIQDARRRSFLHKLI-NH2 [A18,S22,K26-PTHrP(1-28)NH]
15

Determine its reported human PIR R0 (% parent): AVSEHQLLHDKGKSIQDERRRNFLHALI-NH2 [E18,N22,A26-PTHrP(1-28)NH]
53.7

Determine its reported human PIR R0 (% parent): AVSEHQLLHDKGKSIQDARRRWFLHALI-NH2 [A18,26,W22-PTHrP(1-28)NH]
126

Determine its reported human PIR R0 (% parent): AVSEHQLLHDKGKSIQDERRRLFLHALI-NH2 [E18,L22,A26-PTHrP(1-28)NH]
52.5

Determine its reported human PIR R0 (% parent): AVSEHQLLHDKGKSIQDARRRAFLHKLI-NH2 [A18,22,K26-PTHrP(1-28)NH]
178

Determine its reported human PIR R0 (% parent): AVSEHQLLHDKGKSIQDERRRAFLHKLI-NH2 [E18,A22,K26-PTHrP(1-28)NH]
68.8

Determine its reported human PIR R0 (% parent): AVSEHQLLHDKGKSIQDARRRNFLHKLI-NH2 [A18,N22,K26-PTHrP(1-28)NH]
139

Determine its reported human PIR R0 (% parent): AVSEHQLLHDKGKSIQDARRRAFLHALI-NH2 [A18,22,26-PTHrP(1-28)NH]
160

Data credit: patent US20110172153A1
